Target: human HSD17B13 (Homo sapiens, UniProt Q7Z5P4)
Assay: Substrate screening of steroid and bioactive lipid libraries against purified recombinant HSD17B13 (NADH-linked luciferase assay)
Format: biochemical
Conditions: Bioactive Lipid Library, 5 μM bioactive lipid, normalized to 50 μM estradiol after subtraction of 5% DMSO
Think of 8% as a floor: if HSD17B13 Enzymatic Activity Percent Estradiol Control stands on it or above, it is label 1; beneath it, label 0.

[
  {
    "molecule": "CC/C=C\\C/C=C\\C/C=C\\C[C@H](O)/C=C/C=C\\CCCC(=O)O [9(S)-HEPE]",
    "class-label": "label 1"
  },
  {
    "molecule": "CC/C=C\\C[C@H](O)/C=C/[C@@H]1[C@@H](CC(=O)CCCCC(=O)O)[C@@H](O)C[C@H]1O [Δ17-6-keto Prostaglandin F1α]",
    "class-label": "label 0"
  },
  {
    "molecule": "CCCCC/C=C\\CC(O)C(O)CCCCCCCC(=O)O (racemic) [(±)9(10)-DiHOME]",
    "class-label": "label 0"
  },
  {
    "molecule": "CC/C=C\\C/C=C\\C=C\\[C@H](O)C/C=C\\C/C=C\\CCCC(=O)O [11(R)-HEPE]",
    "class-label": "label 1"
  },
  {
    "molecule": "C[C@@H](O)CCC[C@H](O)/C=C/[C@H]1[C@H](O)CC(=O)[C@@H]1C/C=C\\CCCC(=O)O [19(R)-hydroxy Prostaglandin E2]",
    "class-label": "label 0"
  },
  {
    "molecule": "C[C@]12CC[C@@H]3c4ccc(O)cc4CC[C@H]3[C@@H]1CC[C@@H]2O [Estradiol]",
    "class-label": "label 1"
  },
  {
    "molecule": "CCCCC/C=C\\C/C=C\\C[C@H]1O[C@H]1C/C=C\\CCCC(=O)NCCO [8(9)-EET Ethanolamide]",
    "class-label": "label 1"
  },
  {
    "molecule": "CC(C)OC(=O)CCC/C=C\\C[C@@H]1[C@@H](/C=C/[C@H](O)COc2cccc(C(F)(F)F)c2)[C@H](O)C[C@@H]1O [15(S)-Fluprostenol isopropyl ester]",
    "class-label": "label 1"
  },
  {
    "molecule": "CCCCCC=CCC=CCC=CCC(O)C(O)CCCC(=O)O (racemic) [(±)5(6)-DiHET]",
    "class-label": "label 0"
  },
  {
    "molecule": "C[C@@H](O)CCC[C@H](O)/C=C/[C@H]1[C@H](O)CC(=O)[C@@H]1CCCCCCC(=O)O [19(R)-hydroxy Prostaglandin E1]",
    "class-label": "label 0"
  },
  {
    "molecule": "CCCCC/C=C\\C=C\\[C@@H](O)CCCCCCCCCC(=O)O [11(S)-HEDE]",
    "class-label": "label 1"
  },
  {
    "molecule": "CC(C)OC(=O)CCC/C=C\\C[C@@H]1[C@@H](/C=C/[C@@H](O)COc2cccc(C(F)(F)F)c2)[C@H](O)C[C@@H]1O [Fluprostenol isopropyl ester]",
    "class-label": "label 1"
  },
  {
    "molecule": "CCCCC/C=C\\C[C@@H](O)/C=C/C=C/C=C\\[C@@H](O)CCCC(=O)O [Leukotriene B4]",
    "class-label": "label 1"
  },
  {
    "molecule": "CCCCC[C@H](O)/C=C/[C@H]1[C@H](O)CC(=O)[C@@H]1CCCCC(=O)O [2,3-dinor Prostaglandin E1]",
    "class-label": "label 0"
  }
]

* * *

Biological target: human HSD17B13 (Homo sapiens, UniProt Q7Z5P4)
Sequence (Q7Z5P4 20-300): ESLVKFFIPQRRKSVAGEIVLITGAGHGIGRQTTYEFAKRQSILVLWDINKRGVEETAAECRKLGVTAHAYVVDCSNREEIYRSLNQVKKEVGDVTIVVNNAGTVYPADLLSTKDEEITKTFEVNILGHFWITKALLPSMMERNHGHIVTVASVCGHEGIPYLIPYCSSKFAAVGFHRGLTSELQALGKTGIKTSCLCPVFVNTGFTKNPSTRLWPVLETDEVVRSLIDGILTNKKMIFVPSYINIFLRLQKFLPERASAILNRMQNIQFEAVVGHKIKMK
Experiment: Substrate screening of steroid and bioactive lipid libraries against purified recombinant HSD17B13 (NADH-linked luciferase assay)
Type: biochemical
Settings: Bioactive Lipid Library, 5 μM bioactive lipid, normalized to 50 μM estradiol after subtraction of 5% DMSO
Catalogue of compounds with associated HSD17B13 Enzymatic Activity Percent Estradiol Control
result-type: HSD17B13 Enzymatic Activity Percent Estradiol Control (%)

[
  {
    "compound": "CC(=O)N[C@@H](CSC(=O)[C@]1([C@@H](O)C(C)C)NC(=O)[C@H](C)[C@@H]1O)C(=O)O",
    "unit-tag": "%",
    "numeric-result": 0.26
  },
  {
    "compound": "CCCCC/C=C\\C/C=C\\C/C=C\\CC#CCCCC(=O)O [5,6-dehydro Arachidonic Acid]",
    "unit-tag": "%",
    "numeric-result": "−8.68"
  },
  {
    "compound": "CCCCC/C=C\\C/C=C\\CC(O)/C=C/C=C\\CCCC(=O)O (racemic) [(±)9-HETE]",
    "unit-tag": "%",
    "numeric-result": 61.22
  },
  {
    "compound": "CCCCC/C=C\\C=C\\C(O)CCCCCCCC(=O)O (racemic) [(±)9-HODE]",
    "unit-tag": "%",
    "numeric-result": 30.38
  },
  {
    "compound": "CC/C=C\\C/C=C\\C/C=C\\C=C\\C(O)C/C=C\\C/C=C\\CCC(=O)O (racemic) [(±)10-HDHA]",
    "unit-tag": "%",
    "numeric-result": 38.28
  },
  {
    "compound": "CC(C)OC(=O)CCC/C=C/C[C@@H]1[C@@H](/C=C/[C@@H](O)COc2cccc(C(F)(F)F)c2)[C@H](O)C[C@@H]1O (relative stereo) [5-trans Fluprostenol isopropyl ester]",
    "unit-tag": "%",
    "numeric-result": 21.21
  },
  {
    "compound": "CCCCC[C@H](O)/C=C/C=C\\C/C=C\\CCCCC(=O)O [13(S)-HOTrE(γ)]",
    "unit-tag": "%",
    "numeric-result": 12.79
  }
]

* * *

Target: HSD17B10 (Homo sapiens)
Construct: made in house
Sequence (Q99714 1-261): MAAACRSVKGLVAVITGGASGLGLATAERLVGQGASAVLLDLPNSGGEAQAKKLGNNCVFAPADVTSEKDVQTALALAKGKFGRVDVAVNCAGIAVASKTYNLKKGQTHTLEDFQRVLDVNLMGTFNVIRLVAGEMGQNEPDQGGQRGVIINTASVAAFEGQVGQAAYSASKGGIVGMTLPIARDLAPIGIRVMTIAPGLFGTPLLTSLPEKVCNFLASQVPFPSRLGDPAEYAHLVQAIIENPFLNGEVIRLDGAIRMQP
Test: Steroid substrate panel against HSD17B family member B10
Assay type: biochemical
Conditions: substrate at 50 μM; estradiol set as 100%

[
  {
    "compound": "C[C@]12CC[C@@H](O)C[C@H]1CC[C@@H]1[C@@H]2C(=O)C[C@@]2(C)[C@H]1CC[C@]2(O)C(=O)CO [TetrahydroCortisone]",
    "unit-tag": "%",
    "Percent of Control (POC), B10": 52.2
  },
  {
    "compound": "C[C@]12CC[C@H](O)C[C@@H]1CC[C@@H]1[C@@H]2CC[C@]2(C)[C@@H](O)CC[C@@H]12",
    "unit-tag": "%",
    "Percent of Control (POC), B10": 1.2
  },
  {
    "compound": "C[C@]12CC[C@@H](O)C[C@H]1CC[C@@H]1[C@@H]2C(=O)C[C@]2(C)C(=O)CC[C@@H]12",
    "unit-tag": "%",
    "Percent of Control (POC), B10": 30.7
  },
  {
    "compound": "C[C@]12CC[C@@H](O)C[C@@H]1CC[C@@H]1[C@@H]2C(=O)C[C@]2(C)C(=O)CC[C@@H]12",
    "unit-tag": "%",
    "Percent of Control (POC), B10": 31.4
  },
  {
    "compound": "C[C@]12CC[C@@H](O)C[C@@H]1CC[C@@H]1[C@@H]2CC[C@]2(C)[C@@H](O)CC[C@@H]12",
    "unit-tag": "%",
    "Percent of Control (POC), B10": "−0.4"
  },
  {
    "compound": "CC1(C)[C@@H](O[C@H]2O[C@H](C(=O)O)[C@@H](O)[C@H](O)[C@H]2O[C@@H]2O[C@H](C(=O)O)[C@@H](O)[C@H](O)[C@H]2O)CC[C@]2(C)[C@H]3C(=O)C=C4[C@@H]5C[C@@](C)(C(=O)O)CC[C@]5(C)CC[C@@]4(C)[C@]3(C)CC[C@@H]12",
    "unit-tag": "%",
    "Percent of Control (POC), B10": 0.1
  },
  {
    "compound": "CC(=O)OCC(=O)[C@H]1CC[C@H]2[C@@H]3CCC4=CC(=O)CC[C@]4(C)[C@H]3[C@@H](O)C[C@]12C [Corticosterone 21-acetate]",
    "unit-tag": "%",
    "Percent of Control (POC), B10": 0.3
  },
  {
    "compound": "C[C@]12CC[C@H]3[C@@H](CCC4=CC(=O)CC[C@@]43C)[C@@H]1CC[C@@H]2O",
    "unit-tag": "%",
    "Percent of Control (POC), B10": 4.0
  },
  {
    "compound": "C[C@]12CC[C@@H](O)C[C@@H]1CC[C@@H]1[C@@H]2[C@@H](O)C[C@@]2(C)[C@H]1CC[C@]2(O)C(=O)CO [5alpha-Tetrahydrocortisol]",
    "unit-tag": "%",
    "Percent of Control (POC), B10": 46.3
  },
  {
    "compound": "C[C@]12CCC(O)C[C@@H]1CC[C@@H]1[C@@H]2CC[C@]2(C)[C@@H](O)CC[C@@H]12 (stereo partly shown)",
    "unit-tag": "%",
    "Percent of Control (POC), B10": 1.9
  },
  {
    "compound": "CC[C@H]1[C@@H](O)[C@@H]2[C@H](CC[C@]3(C)[C@@H]([C@H](C)CCC(=O)O)CC[C@@H]23)[C@@]2(C)CC[C@@H](O)C[C@@H]12",
    "unit-tag": "%",
    "Percent of Control (POC), B10": 39.3
  },
  {
    "compound": "C[C@]12CC[C@@H]3c4ccc(O)cc4CC[C@H]3[C@@H]1CC[C@@H]2O",
    "unit-tag": "%",
    "Percent of Control (POC), B10": 100
  },
  {
    "compound": "C[C@]12CCC(=O)C[C@@H]1CC[C@@H]1[C@@H]2CC[C@]2(C)[C@@H](O)CC[C@@H]12 [DHT, dihydroxy testosterone (DHT)]",
    "unit-tag": "%",
    "Percent of Control (POC), B10": 3.3
  }
]
